- System: T-47D breast
- assay overview: NCI-60 one-dose screen, 48 h
- condition context: 10 µM unless noted
About 83,000 compounds went through this panel and 20% of them were active in at least one assay; those are over-represented in the sample as a whole. Calls of active or inactive are those of the source. How the source made its calls: active means growth percent below 10; inactive means the rest.
Choose the fitting class; nothing outside active, inactive is accepted.

Some solved entries appear below for comparison.
* COc1cc(C(=O)N2CCN(c3ccccc3)CC2)c2ccccc2n1 | inactive
* Oc1cc2ccccc2c(-c2c(O)c(O)cc3ccccc23)c1O | inactive

Which outcome did this test record for the compound BrCc1cccc(C[P+](c2ccccc2)(c2ccccc2)c2ccccc2)c1 ? inactive

# repeat for Oc1cccc(CNC2CCCCC2)c1 inactive

# repeat for Cc1ccc(S(=O)(=O)CCCl)cc1 inactive

# repeat for COc1ccc2c(ccc[n+]2C)c1 inactive

// provenance: PubChem BioAssay (NCI)
